# Test system: HCT-116 cells (colon cancer)
# protocol-summary: MTT anti-proliferative assay, HCT-116
# Assay type: cell-based
# measurement-conditions: Homo sapiens, HCT-116, 48 h, read-out: In vitro cytotoxicity IC50 HCT 116
parameter: pIC50
Give bare numbers, as −log10 of the molar value.

Memo: CNC(=O)c1cc(Oc2ccc(NC(=O)Nc3ccc(Cl)c(C(F)(F)F)c3)cc2)ccn1 , reported pIC50: 5.05
